- measurement.protocol: chemical genetic growth profiling, strain panel (AID 1159580);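 further: tested at 20 µM; growth read once vehicle control cultures reached saturation at 30 °C; lower values mean less growth of the strain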
- run.parameters: S. cerevisiae deletion strains, growth OD, locus YHR030C, strain SLT2
Among all 5,500 compounds or so, about 2,000 (36%) were called active. Inconclusive results (about 18%) are left out. No stated cut-off is given here; in the data, active means normalized growth mostly below about 0.91 (no sharp cut-off); inconclusive means no clear call, values can overlap the other calls; inactive means mostly above about 0.92. This is one part of the list.
Outcomes you can answer with include only these: active, inactive

Solved cases (3 shown):
CCn1cc(C(=O)O)c(=O)c2cc(F)c(N3CCNCC3)nc21 : inactive
CCOC(=O)CNc1ccc(F)cc1 : inactive
C=C[C@@](C)(O)CCC1C(=C)C[C@H](OC(C)=O)C2C(C)(C)CCCC12C (some centres undefined) : inactive

Given O=[N+]([O-])c1ccc(-c2noc(-c3ccno3)n2)o1 , state the outcome it received in this test.
active

What is the recorded call for this compound in the test? CN1C2CCC1CC(OC(c1ccccc1)c1ccccc1)C2 (centres undefined)
active

Give the logged outcome of this assay for the following compound: CCCCC/C=C/CCC(=O)N[C@H]1[C@H](Oc2c3cc4cc2Oc2ccc(cc2Cl)[C@@H](O[C@@H]2O[C@H](CO)[C@@H](O)[C@H](O)[C@H]2NC(C)=O)[C@@H]2NC(=O)[C@H](NC(=O)[C@@H]4NC(=O)[C@H]4NC(=O)C(Cc5ccc(c(Cl)c5)O3)NC(=O)[C@H](N)c3ccc(O)c(c3)Oc3cc(O)cc4c3)c3ccc(O)c(c3)-c3c(OC4O[C@H](CO)[C@@H](O)[C@H](O)[C@@H]4O)cc(O)cc3[C@@H](C(=O)O)NC2=O)O[C@H](CO)[C@@H](O)[C@@H]1O (some centres undefined)
inactive

Check the results log: what was the call for CCOC(=O)n1ccn(C)c1=S ?
inactive

Outcome logged for Clc1ccc(C(OCCN2CCCCC2)c2ccccc2)cc1 (centres undefined) in this assay:
inactive
